Molecular target: T1, Extracellular domain of cyno PD1 (cPD1-ECD) (Macaca fascicularis (cynomolgus))
T1 construct: Expressed with a hexahistidine tag or as Fc fusion; also called cynoPD1-ECD; cynoPD-1-ECD
T1 chain: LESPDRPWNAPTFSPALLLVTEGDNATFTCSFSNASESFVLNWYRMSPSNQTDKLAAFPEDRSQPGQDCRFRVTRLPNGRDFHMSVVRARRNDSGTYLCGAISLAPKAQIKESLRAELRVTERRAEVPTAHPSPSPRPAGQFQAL
Experiment: SPR ProteOn, captured mAb, cynoPD1-ECD analyte;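 note: ProteOn XPR36 SPR with antibodies held by anti-IgG Fc on a GLC chip, kinetic constants obtained by fitting to a Langmuir 1:1 binding model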
recorded-endpoint: koff (s⁻¹)
One number for each entry, in s⁻¹.

# example entries with known answers
PD1B200 (antibody, V domains shown, also called PD1H164/PD1L168) VH: QVQLVQSGAEVKKPGSSVKVSCKASGGTFSDYVISWVRQAPGQGLEWMGGIIPIYGTANYAQKFQGRVTITADESTSTAYMELSSLRSEDTAVYYCARGTLDRTGHLDYWGQGTLVTVSS VL: EIVLTQSPATLSLSPGERATLSCRASQSVDNYLAWYQQKPGQAPRLLIHDASNRATGIPARFSGSGSGTDFTLTISSLEPEDFAVYYCQQRSAWPLTFGQGTKVEIK
0.000422
PD1B196 (antibody, V domains shown, also called PD1H170/PD1L148) VH: QVQLVQSGAEVKKPGSSVKVSCKASGGTFSSYAISWVRQAPGQGLEWMGGIIPIFDTANYAQKFQGRVTITADESTSTAYMELSSLRSEDTAVYYCARPGLAAAYDTGSLDYWGQGTLVTVSS VL: EIVLTQSPATLSLSPGERATLSCRASQSVRSYLAWYQQKPGQAPRLLIYDASNRATGIPARFSGSGSGTDFTLTISSLEPEDFAVYYCQQRNYWPLTFGQGTKVEIK
0.000176

In the following, a different binder is considered.
Query: // koff lookup, key: PD1B194 (antibody, V domains shown, also called PD1H170/PD1L71) VH: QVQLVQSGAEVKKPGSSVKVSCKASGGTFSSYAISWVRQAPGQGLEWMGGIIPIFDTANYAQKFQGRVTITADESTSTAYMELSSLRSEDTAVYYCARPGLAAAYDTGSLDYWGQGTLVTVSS VL: EIVLTQSPATLSLSPGERATLSCRASQSVRSYLAWYQQKPGQAPRLLIYDASYRATGIPARFSGSGSGTDFTLTISSLEPEDFAVYYCQQRDYWPLTFGQGTKVEIK
Reply: 0.000193
